Sourced from ChEMBL document CHEMBL1147331

assay: Selectivity index, ratio of ED50 for human HT1080 cells to ED50 for chloroquine-sensitive Plasmodium falciparum D6; type: toxicity, cell-based, HT-1080; settings: read-out: Ratio ED50
Label TRUE when selectivity ratio is strictly below 80; at or above that, label FALSE.

Reference set (3 entries):
* COc1ccc2cc1Oc1ccc(cc1)C[C@H]1c3c(cc(OC)c4c3Oc3cc5c(cc3O4)CCN=C5C2)CCN1C | TRUE
* COc1ccc2cc1Oc1ccc(cc1)C[C@H]1c3c(cc(OC)c(O)c3Oc3cc4c(cc3OC)CCN(C)[C@@H]4C2)CCN1C | FALSE
* COc1ccc2cc1Oc1ccc(cc1)C[C@H]1c3c(cc(OC)c(OC)c3Oc3cc4c(cc3OC)CCN(C)[C@@H]4C2)CCN1C | TRUE

A record lists COc1ccc2cc1Oc1ccc(cc1)C[C@H]1c3cc(c(OC)cc3CCN1C)Oc1c(OC)c(OC)cc3c1[C@@H](C2)NCC3 . Is its selectivity ratio below 80?
FALSE

A record lists C=C[C@H]1CN2CC[C@H]1C[C@H]2[C@H](O)c1ccnc2ccc(OC)cc12 . Is its selectivity ratio below 80?
FALSE

A record lists COc1ccc2cc1Oc1ccc(cc1)C[C@H]1c3cc(c(OC)cc3CCN1C)Oc1c(O)c(OC)cc3c1[C@@H](C2)N(C)CC3 . Is its selectivity ratio below 80?
FALSE
